biological target: T1, VEGF165 (human, UniProt P15692-4 27-191); experiment: binding competition ELISA (VEGF165 Quantikine): free VEGF165 captured by the plate antibody
T1 construct: Treated as one molecule; also called VEGF-A165; human VEGF-A165
T1 sequence (P15692 other isoform, or with tags, fused parts or gaps limits assumed): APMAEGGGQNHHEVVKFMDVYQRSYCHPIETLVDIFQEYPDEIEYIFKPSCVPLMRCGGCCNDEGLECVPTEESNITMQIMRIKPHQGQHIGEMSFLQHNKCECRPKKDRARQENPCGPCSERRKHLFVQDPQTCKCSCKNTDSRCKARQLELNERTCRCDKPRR
reported endpoint: IC50 (ng/mL)
Report only the number, with the unit ng/mL understood.

// known answers, use as guide
- binder: "mvsFlt 300 kDa HCR (multivalent sFlt-hyaluronic acid conjugate, high conjugation ratio) (other, UniProt P17948 27-328, looked up, thiolated with 2-iminothiolane and linked through EMCH maleimide to 300 kDa hyaluronic acid, domain: first 3 Ig-like extracellular domains; Protein-polymer conjugate; 30:1 sFlt:HyA feed ratio; final sFlt:HyA 15.4 by SEC-MALS; not shown: tag implied by Ni-NTA purification, not described) SKLKDPELSLKGTQHIMQAGQTLHLQCRGEAAHKWSLPEMVSKESERLSITKSACGRNGKQFCSTLTLNTAQANHTGFYSCKYLAVPTSKKKETESAIYIFISDTGRPFVEMYSEIPEIIHMTEGRELVIPCRVTSPNITVTLKKFPLDTLIPDGKRIIWDSRKGFIISNATYKEIGLLTCEATVNGHLYKTNYLTHRQTNTIIDVQISTPRPVKLLRGHTLVLNCTATTPLNTRVQMTWSYPDEKNKRASVRRRIDQSNSHANIFYSVLTIDKMQNKDKGLYTCRVRSGPSFKSVNTSVHI"
  IC50 (ng/mL): 4.7
- binder: "mvsFlt 1 MDa LCR (multivalent sFlt-hyaluronic acid conjugate, low conjugation ratio) (other, UniProt P17948 27-328, looked up, thiolated with 2-iminothiolane and linked through EMCH maleimide to 1 MDa hyaluronic acid, domain: first 3 Ig-like extracellular domains; Protein-polymer conjugate; 10:1 sFlt:HyA feed ratio; final sFlt:HyA 5.2 by SEC-MALS; not shown: tag implied by Ni-NTA purification, not described) SKLKDPELSLKGTQHIMQAGQTLHLQCRGEAAHKWSLPEMVSKESERLSITKSACGRNGKQFCSTLTLNTAQANHTGFYSCKYLAVPTSKKKETESAIYIFISDTGRPFVEMYSEIPEIIHMTEGRELVIPCRVTSPNITVTLKKFPLDTLIPDGKRIIWDSRKGFIISNATYKEIGLLTCEATVNGHLYKTNYLTHRQTNTIIDVQISTPRPVKLLRGHTLVLNCTATTPLNTRVQMTWSYPDEKNKRASVRRRIDQSNSHANIFYSVLTIDKMQNKDKGLYTCRVRSGPSFKSVNTSVHI"
  IC50 (ng/mL): 2.2

Continue with the binder presented below.
In: Quick check: IC50 of mvsFlt 650 kDa LCR (multivalent sFlt-hyaluronic acid conjugate, low conjugation ratio) (other, UniProt P17948 27-328, looked up, thiolated with 2-iminothiolane and linked through EMCH maleimide to 650 kDa hyaluronic acid, domain: first 3 Ig-like extracellular domains; Protein-polymer conjugate; 10:1 sFlt:HyA feed ratio; final sFlt:HyA 5.3 by SEC-MALS; also called 650 kDa LCR mvsFlt; not shown: tag implied by Ni-NTA purification, not described) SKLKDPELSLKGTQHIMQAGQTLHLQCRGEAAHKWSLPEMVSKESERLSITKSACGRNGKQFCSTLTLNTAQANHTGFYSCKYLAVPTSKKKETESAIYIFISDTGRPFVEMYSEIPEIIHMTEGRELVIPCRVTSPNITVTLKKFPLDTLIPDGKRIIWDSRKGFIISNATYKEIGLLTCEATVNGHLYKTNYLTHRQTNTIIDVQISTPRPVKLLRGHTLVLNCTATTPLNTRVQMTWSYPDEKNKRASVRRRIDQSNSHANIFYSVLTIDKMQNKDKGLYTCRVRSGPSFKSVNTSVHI ?
Out: 3.9
